system: 565232-114-T-J1-PDC complex spheroid viability; assay: Anticancer human tumor 565232-114-T-J1-PDC patient-derived bladder carcinoma cell line growth inhibition [CLK]; conditions: second compound 0.1 µM; first compound 1 µM; active means viability on the fitted dose curve at most 10% of control; inactive means the rest
Pick one and only one: active, inactive

Ask: Dear colleague, could you share the recorded outcome for COc1cccc2c1C(=O)c1c(O)c3c(c(O)c1C2=O)CC(O)(C(=O)CO)CC3OC1CC(N)C(O)C(C)O1 (stereo not given) + CNC(=O)c1ccc(Nc2nc(OC3CCCC3)c3c(-c4ccc5nc(C)oc5c4)c[nH]c3n2)c(OC)c1 when you have a moment?
Reply: active

Ask: Dear colleague, could you share the recorded outcome for COc1cccc2c1C(=O)c1c(O)c3c(c(O)c1C2=O)CC(O)(C(=O)CO)CC3OC1CC(N)C(O)C(C)O1 (stereo not given) + CN1CCN(c2cc(C(=O)Nc3cc4cc(-c5cnn(C)c5)ccc4cn3)ccn2)CC1 when you have a moment?
Reply: active

Ask: Dear colleague, could you share the recorded outcome for Nc1ccccc1NC(=O)c1ccc(CNC(=O)OCc2cccnc2)cc1 + CNC(=O)c1ccc(Nc2nc(OC3CCCC3)c3c(-c4ccc5nc(C)oc5c4)c[nH]c3n2)c(OC)c1 when you have a moment?
Reply: inactive

Ask: Dear colleague, could you share the recorded outcome for CC1COCCN1c1cc(C2(S(C)(=N)=O)CC2)nc(-c2ccnc3[nH]ccc23)n1 (stereo not given) + CN1CCN(c2cc(C(=O)Nc3cc4cc(-c5cnn(C)c5)ccc4cn3)ccn2)CC1 when you have a moment?
Reply: inactive

Ask: Dear colleague, could you share the recorded outcome for COC1C=CCC(C)C(C)S(=O)(=O)NC(=O)c2ccc3c(c2)N(CC2CCC21)CC1(CCCc2cc(Cl)ccc21)CO3 (stereo not given) + CNC(=O)c1ccc(Nc2nc(OC3CCCC3)c3c(-c4ccc5nc(C)oc5c4)c[nH]c3n2)c(OC)c1 when you have a moment?
Reply: inactive

---

The reader will find reported IC50 values listed item by item below.
test system: 565232-114-T-J1-PDC complex spheroid viability; assay: Anticancer human tumor 565232-114-T-J1-PDC cell line growth inhibition [CLK]; details: curve of first compound; second compound 0.1 µM;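 further: spheroids exposed to compounds for 7 days before readout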
Report only the number, with the unit nM understood.

Sample answers from the record:
Compound | Assay target | Unit abbrev | Obs value
CC1(C)CCC(CN2CCN(c3ccc(C(=O)NS(=O)(=O)c4ccc(NCC5CCOCC5)c([N+](=O)[O-])c4)c(Oc4cnc5[nH]ccc5c4)c3)CC2)=C(c2ccc(Cl)cc2)C1 + CN1CCN(c2cc(C(=O)Nc3cc4cc(-c5cnn(C)c5)ccc4cn3)ccn2)CC1 | 565232-114-T-J1-PDC complex spheroid viability | nM | 8010
COc1cccc2c1C(=O)c1c(O)c3c(c(O)c1C2=O)CC(O)(C(=O)CO)CC3OC1CC(N)C(O)C(C)O1 (stereo unspecified) + CN1CCN(c2cc(C(=O)Nc3cc4cc(-c5cnn(C)c5)ccc4cn3)ccn2)CC1 | 565232-114-T-J1-PDC complex spheroid viability | nM | 247
CC1(C)CCC(CN2CCN(c3ccc(C(=O)NS(=O)(=O)c4ccc(NCC5CCOCC5)c([N+](=O)[O-])c4)c(Oc4cnc5[nH]ccc5c4)c3)CC2)=C(c2ccc(Cl)cc2)C1 + CNC(=O)c1ccc(Nc2nc(OC3CCCC3)c3c(-c4ccc5nc(C)oc5c4)c[nH]c3n2)c(OC)c1 | 565232-114-T-J1-PDC complex spheroid viability | nM | 2340
CC(C)CC(NC(=O)C(Cc1ccccc1)NC(=O)c1cnccn1)B(O)O (stereo unspecified) + CN1CCN(c2cc(C(=O)Nc3cc4cc(-c5cnn(C)c5)ccc4cn3)ccn2)CC1 | 565232-114-T-J1-PDC complex spheroid viability | nM | 6.17
CCCS(=O)(=O)Nc1ccc(F)c(C(=O)c2c[nH]c3ncc(-c4ccc(Cl)cc4)cc23)c1F + CNC(=O)c1ccc(Nc2nc(OC3CCCC3)c3c(-c4ccc5nc(C)oc5c4)c[nH]c3n2)c(OC)c1 | 565232-114-T-J1-PDC complex spheroid viability | nM | 455

Ask: // IC50 lookup, key: CC(CO)NC(=O)c1cc(-c2ccc(Cl)cc2)nn(-c2cnn(C)c2)c1=O (stereo unspecified) + CNC(=O)c1ccc(Nc2nc(OC3CCCC3)c3c(-c4ccc5nc(C)oc5c4)c[nH]c3n2)c(OC)c1
Reply: 131

Ask: // IC50 lookup, key: C=CC(=O)Nc1cc(Nc2nccc(-c3cn(C)c4ccccc34)n2)c(OC)cc1N(C)CCN(C)C + CNC(=O)c1ccc(Nc2nc(OC3CCCC3)c3c(-c4ccc5nc(C)oc5c4)c[nH]c3n2)c(OC)c1
Reply: 105
